- System: A498 renal
- Test Name: NCI-60 one-dose screen, 48 h
- Condition Parameters: 10 µM unless noted
Compounds without any hit were thinned out: in the full panel of roughly 83,000, 20% have a hit. Active and inactive are the calls of the source. The calls were made as follows: active = growth percent below 10; inactive = the rest.
Your answer must be one of the following: t = active, f = inactive

- Molecule: "Cn1c2ccccc2c2c3c(c4c5ccccc5n(CCCCCC#N)c4c21)C(=O)N(O)C3=O"
  Group Label: "t"
- Molecule: "Cc1sc2nc3[nH]/c(=C\\c4ccc(Cl)cc4)c(=O)n3c(=O)c2c1C"
  Group Label: "f"

Task: Could you please tell me the result logged for CCCCCCCCCCNC(=O)CCl in this assay?
Output: f

Task: Could you please tell me the result logged for CCN(CC)CCCNc1cccc2c(SCc3ccccc3)ccnc12 in this assay?
Output: f

Task: Could you please tell me the result logged for O=C(COc1cccc(/C=C2/Oc3ccccc3C2=O)c1)Nc1nccs1 in this assay?
Output: f

Task: Could you please tell me the result logged for CCCN(CCC)CN(CCC)CCC in this assay?
Output: f

Task: Could you please tell me the result logged for CCCCCCCCCC(=O)Oc1ccc(/C(=C(/C)Cc2cccc(OC)c2)c2ccc(OCCN(C)C)cc2)cc1 in this assay?
Output: f

Task: Could you please tell me the result logged for O=C1C(=O)N(CCCCn2cc(CO)nn2)c2ccccc21 in this assay?
Output: f

Task: Could you please tell me the result logged for O=C1Nc2ccccc2C12CC(c1ccc(Cl)cc1)=NN2 (stereo unspecified) in this assay?
Output: f

Task: Could you please tell me the result logged for Nc1c(C(=O)Nc2cccc3c2OCCO3)sc2nc3c(cc12)C(=O)CCC3 in this assay?
Output: t

Task: Could you please tell me the result logged for CC1=N/C(=C\c2cccc(Br)c2)C(=O)O1 in this assay?
Output: f
